- procedure.summary: chemical genetic growth profiling, strain panel (AID 1159580);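 further: tested at 20 µM; growth read once vehicle control cultures reached saturation at 30 °C; 1 = growth at the plate median or of vehicle wells; lower values mean less growth of the strain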
- setup.conditions: S. cerevisiae deletion strains, growth OD, locus YNL020C, strain ARK1, stronger effect = lower value
Screen size: about 5,500 compounds; about 2,000 (36%) were called active. Roughly 18% stayed inconclusive and do not appear here. Some of the results follow.
quantity: normalized growth
In your answer, state the number alone without any accompanying words.

In the examples that follow, each entry is paired with its recorded normalized growth.
[[record]]
smiles_str = "Cc1onc(-c2c(Cl)cccc2Cl)c1C(=O)NNc1c(Cl)cccc1Cl"
meas_value = 0.988

[[record]]
smiles_str = "ClC1=C(C=Nc2ccc(Cl)cc2)CSc2ccc(Cl)cc21"
meas_value = 0.883

[[record]]
smiles_str = "Cc1c(C(=S)Nc2ccccc2)sc2ccccc12"
meas_value = 0.875

[[record]]
smiles_str = "CC(C)(C)c1ccc(C(=O)Nc2ccc(C(F)(F)F)cc2)s1"
meas_value = 0.973

[[record]]
smiles_str = "S=c1[nH]nc(Nc2ccc(I)cc2)s1"
meas_value = 0.71


Next:
Input: What value of normalized growth has been recorded for this entry: `Cc1onc(-c2c(F)cccc2Cl)c1C(=O)NNc1cc(Cl)cc(Cl)c1`
Output: 0.914

----------
# normalized growth per record follows
- procedure.summary: chemical genetic growth profiling, strain panel (AID 1159580);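 further: tested at 20 µM; growth read once vehicle control cultures reached saturation at 30 °C; 1 = growth at the plate median or of vehicle wells; lower values mean less growth of the strain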
- setup.conditions: S. cerevisiae deletion strains, growth OD, locus YOR316C, strain cot1, stronger effect = lower value
Out of some 5,500 compounds screened, about 2,000 (36%) were called active. Roughly 18% stayed inconclusive and do not appear here. Some of the results follow.
In your answer, state the number alone without any accompanying words.

Input: What value of normalized growth has been recorded for this entry: `CCN(CC)CCOC(=O)c1ccc(N)cc1`
Output: 0.992

Input: Follow-up entry: `C=C1C(=O)O[C@@H]2C[C@@]3(C)CCC[C@H](C)C3=C[C@H]12`
Output: 0.939

Input: Follow-up entry: CC1(C)C2(Cl)C(Cl)C(Cl)C(Cl)(C(Cl)Cl)C1(Cl)C2Cl (centres undefined)
Output: 0.977

Input: Follow-up entry: `O=c1[nH]oc2c1CCNC2`
Output: 0.995

----------
# normalized growth per record follows
- procedure.summary: chemical genetic growth profiling, strain panel (AID 1159580);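 further: tested at 20 µM; growth read once vehicle control cultures reached saturation at 30 °C; 1 = growth at the plate median or of vehicle wells; lower values mean less growth of the strain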
- setup.conditions: S. cerevisiae deletion strains, growth OD, locus YOR080W, strain dia2, stronger effect = lower value
The whole screen tested about 5,500 compounds, of which about 2,000 (36%) were called active. About 18% were inconclusive and are not listed. This is one part of the list.
In your answer, state the number alone without any accompanying words.

In the examples that follow, each entry is paired with its recorded normalized growth.
[[record]]
compound = "COc1cc(-c2coc3cc(OC)c(OC)c(OC)c3c2=O)cc(OC)c1OC"
meas_value = 0.995

[[record]]
compound = "C=CCCCCCCCCCCCC(O)CC(O)COC(C)=O (stereo not given) (tested in a mixture with another compound)"
meas_value = 0.978

[[record]]
compound = "CCCCN1CCCCC1C(=O)Nc1c(C)cccc1C (stereo not given)"
meas_value = 0.979

[[record]]
compound = "CC[N+](CC)(CC)CCOc1cccc(OCC[N+](CC)(CC)CC)c1OCC[N+](CC)(CC)CC"
meas_value = 1.02


Input: What value of normalized growth has been recorded for this entry: C#CCCCCCCCCCCCC(O)CC(O)CO (stereo not given)
Output: 0.994

Input: Follow-up entry: `NC(=O)c1cccc(N)c1`
Output: 0.981

Input: Follow-up entry: `Cc1cc(-c2ccccc2)nnc1NCCN1CCOCC1`
Output: 0.987

Input: Follow-up entry: COC(=O)C(C)c1ccc(C(=O)c2cccs2)cc1 (stereo not given)
Output: 1.02

Input: Follow-up entry: `O=C(O)c1ccccc1-c1c2cc(Br)c(=O)cc-2oc2[c]([Hg])c(O)c(Br)cc12`
Output: 1.02

Input: Follow-up entry: `O=C(O)CN1C(=O)c2cccc3cccc(c23)C1=O`
Output: 0.989

Input: Follow-up entry: CC(C(=O)O)c1ccc(C(=O)c2cccs2)cc1 (stereo not given)
Output: 0.988

Input: Follow-up entry: `CCCCN(CCCC)CCCOC(=O)c1ccc(N)cc1`
Output: 0.996

Input: Follow-up entry: `CC(C)NC[C@H](O)COc1cccc2ccccc12`
Output: 0.977

Input: Follow-up entry: `CO/N=C(\C(=O)N[C@@H]1C(=O)N2C(C(=O)O)=C(CSc3nc(=O)c(O)nn3C)CS[C@H]12)c1csc(N)n1`
Output: 0.971

Input: Follow-up entry: `Cc1cc(NC(=O)C2=C(O)c3ccccc3S(=O)(=O)N2C)no1`
Output: 0.974

Input: Follow-up entry: CCCCCCCCCCCCCCCC(=O)OC1C(SC)OC(C(NC(=O)C2CC(CCC)CN2C)C(C)Cl)C(O)C1O (stereo not given)
Output: 0.98

Input: Follow-up entry: `CCOC(=O)Nc1nc2ccccc2[nH]1`
Output: 0.971
